The reported numbers originate from PubChem BioAssay (EPA / NIEHS).

- Read-out: Cytochrome P450 3A4 (Homo sapiens)
- EXPERIMENT_SUMMARY: LTEA_HepaRG_CYP3A4: Life Technologies and Expression Analysis (LTEA) Assay for CYP3A4 using HepaRG (AID 2283487)
- COND: mRNA level, 48 h; actives raise or lower the signal
The source made the active and inactive calls. The calls were made as follows: active = hit-call score of the fitted dose curve at least 0.9, where 1 is the maximum; inactive = score below 0.9.
Labels: class 1 for active, class 0 for inactive

>  <MOLECULE>
CCNC(=O)NC(=O)C(C#N)=NOC

>  <QUALITATIVE_LABEL>
class 0

$$$$
>  <MOLECULE>
COC(=O)c1c(C(F)F)nc(C(F)(F)F)c(C2=NCCS2)c1CC(C)C

>  <QUALITATIVE_LABEL>
class 1

$$$$
>  <MOLECULE>
CCCN(CC)CC1COC2(CCC(C(C)(C)C)CC2)O1 (configuration not stated)

>  <QUALITATIVE_LABEL>
class 0

$$$$
>  <MOLECULE>
CCOP(=O)(OCC)Oc1nc(Cl)c(Cl)cc1Cl

>  <QUALITATIVE_LABEL>
class 1

$$$$
>  <MOLECULE>
CCCC(=NOCC)C1=C(O)CC(CC(C)SCC)CC1=O (configuration not stated)

>  <QUALITATIVE_LABEL>
class 1

$$$$
>  <MOLECULE>
CC(C)N1C(=O)N(c2ccccc2)CSC1=NC(C)(C)C

>  <QUALITATIVE_LABEL>
class 1

$$$$
>  <MOLECULE>
Nc1c(Cl)c(F)nc(OCC(=O)O)c1Cl

>  <QUALITATIVE_LABEL>
class 0

$$$$
>  <MOLECULE>
Cc1cc(C)nc(Nc2ccccc2)n1

>  <QUALITATIVE_LABEL>
class 0

$$$$
>  <MOLECULE>
CCNP(=S)(OC)O/C(C)=C/C(=O)OC(C)C (configuration not stated)

>  <QUALITATIVE_LABEL>
class 1

$$$$
>  <MOLECULE>
CC(C)Nc1nc(Cl)nc(NC(C)C)n1

>  <QUALITATIVE_LABEL>
class 1

$$$$
>  <MOLECULE>
COP(=S)(OC)Oc1ccc([N+](=O)[O-])c(C)c1

>  <QUALITATIVE_LABEL>
class 0

$$$$
>  <MOLECULE>
Clc1cccc(C(Cl)(Cl)Cl)n1

>  <QUALITATIVE_LABEL>
class 0

$$$$
>  <MOLECULE>
CC1(C)C(C(=O)OC(C#N)c2cccc(Oc3ccccc3)c2)C1(C)C (configuration not stated)

>  <QUALITATIVE_LABEL>
class 1

$$$$
>  <MOLECULE>
CC1(C)CON(Cc2ccccc2Cl)C1=O

>  <QUALITATIVE_LABEL>
class 1

$$$$
>  <MOLECULE>
COC(=O)NS(=O)(=O)c1ccc(N)cc1

>  <QUALITATIVE_LABEL>
class 0

$$$$
>  <MOLECULE>
COC(=O)NC(=S)Nc1ccccc1NC(=S)NC(=O)OC

>  <QUALITATIVE_LABEL>
class 1

$$$$
>  <MOLECULE>
CCOc1nc(F)cc2nc(S(=O)(=O)Nc3c(Cl)cccc3Cl)nn12

>  <QUALITATIVE_LABEL>
class 1

$$$$
>  <MOLECULE>
CCCCC(C#N)(Cn1cncn1)c1ccc(Cl)cc1 (configuration not stated)

>  <QUALITATIVE_LABEL>
class 1

$$$$
>  <MOLECULE>
CSC(=O)c1c(C(F)F)nc(C(F)(F)F)c(C(=O)SC)c1CC(C)C

>  <QUALITATIVE_LABEL>
class 1

$$$$
>  <MOLECULE>
O=c1n(Cl)c(=O)n(Cl)c(=O)n1Cl

>  <QUALITATIVE_LABEL>
class 0

$$$$
>  <MOLECULE>
CNC(=O)Oc1cccc2ccccc12

>  <QUALITATIVE_LABEL>
class 0

$$$$
>  <MOLECULE>
CS(=O)(=O)c1cc(C(F)(F)F)ccc1C(=O)c1cnoc1C1CC1

>  <QUALITATIVE_LABEL>
class 1

$$$$
>  <MOLECULE>
C=CCOC(=O)C(C)(C)OC(=O)c1cc(-n2c(=O)cc(C(F)(F)F)n(C)c2=O)ccc1Cl

>  <QUALITATIVE_LABEL>
class 1

$$$$
>  <MOLECULE>
N#CN=C1SCCN1Cc1ccc(Cl)nc1

>  <QUALITATIVE_LABEL>
class 1

$$$$
>  <MOLECULE>
COP(=S)(OC)SCn1nnc2ccccc2c1=O

>  <QUALITATIVE_LABEL>
class 1

$$$$
>  <MOLECULE>
CC(C)NC(=O)N1CC(=O)N(c2cc(Cl)cc(Cl)c2)C1=O

>  <QUALITATIVE_LABEL>
class 1

$$$$
>  <MOLECULE>
CN=C=S

>  <QUALITATIVE_LABEL>
class 0

$$$$
